Recorded measurements of z-score, one per entry
Experiment: P. aeruginosa biofilm formation inhibitors, primary screen, PAO1 strain, BacTiter-Glo luminescence, LB-PBS (AID 1144)
Details: 12 h, higher = more signal
quantity: z-score

1) COCCOC(=O)N1C(=O)[C@@]2(c3cc(C#CC4=CCCCC4)ccc31)[C@H](C(=O)N1CCCCCCC1)[C@H]1C(=O)O[C@H](c3ccccc3)[C@H](c3ccccc3)N1[C@@H]2c1ccc(O)cc1	-1.7
2) CC(CO)N1C(=O)[C@@H]2[C@H]3C(=O)OCC=C[C@H]3OC23C=CCN(Cc2ccccc2)C(=O)[C@@H]13 (stereo partly drawn)	-1.11
3) COC(=O)c1cn(C[C@@H](Cc2ccccc2)NC(=O)N[C@H](CO)CCc2oc(C(C)=O)c(C(=O)OC)c2C(=O)OC)nn1	0.201
4) CCOC(=O)C[C@H]1[C@H](OC(=O)c2ccccc2-c2ccccc2)[C@@H](NC(=O)C2CCCCC2)c2cc(OCCCO)ccc2N1C(=O)Cc1ccc(OC)cc1	0.642
5) [N-]=[N+]=NCc1ccccc1[C@H]1OC(c2ccc(OCCCO)cc2)=N[C@@]1(CCS(=O)(=O)c1ccccc1)C(=O)N1CCCCC1	-0.705
6) C=C(COC)/C(=C/C[C@H](OC(C)=O)c1ccc(OCCO)cc1)c1cc(C(=O)OC)ccc1OC	-0.339
7) COc1ccc([Si](C)(C)[C@@H]2[C@@H](CC(=O)N(CCO)Cc3ccccc3)O[C@]3(C(=O)N(Cc4cccc(N5C(=O)c6cccc7cccc5c67)c4)c4ccccc43)[C@H]2C)cc1	-1.02
8) [N-]=[N+]=Nc1ccccc1[C@@H]1OC(c2ccc(OCCCO)cc2)=N[C@]1(Cc1ccccc1)C(=O)NCC(O)CO (stereo partly drawn)	0.255
9) C[C@H]1NC(=O)[C@@]23C(=O)N[C@@H](Cc4ccccc4)C2[C@H](C)[C@@]2(C)O[C@H]2C3/C=C/C/C=C\CNC(=O)[C@H](Cc2ccccc2)NC1=O (stereo partly drawn)	-0.773
10) CCCCN1CC=CC23O[C@@H]4/C=C\CCC(C)OC(=O)C4[C@H]2C(=O)N(C(CO)C(C)C)[C@@H]3C1=O (stereo partly drawn)	0.524
11) C[C@@H]1ON(c2ccc(C(=O)OC(C)(C)C)cc2)[C@H](c2ccc(O)cc2)[C@H]1C(=O)N1C(=O)OC[C@H]1Cc1ccccc1	0.133
12) COCCOC(=O)N1C(=O)[C@@]2(c3cc(C#CCCO)ccc31)[C@H](C(=O)Nc1nc3ccccc3s1)[C@H]1C(=O)O[C@H](c3ccccc3)[C@H](c3ccccc3)N1[C@@H]2c1ccccc1OCCO	0.235
13) C=CCC(OC(C)=O)[C@@H]1[C@@H](N(Cc2ccc(-c3cccc(C(F)(F)F)c3)o2)C(=O)c2ccc(C)cc2)c2cc(OCCCO)ccc2N1C(=O)c1ccc2ccccc2c1 (stereo partly drawn)	-1.39
